# Tested on: NCI-H226 lung
# testName: NCI tumour cell line growth inhibition, 48 h
readoutKind: log10 TGI (log10 of the value in µM)

- molecule: "COc1ccc(NC(=S)c2ccoc2C)cc1CC(=O)OC(C)C"
  observed: 1.83
- molecule: "Cc1ccc(-c2csc(NC(=O)N3CCN(c4cc5c(cc4F)c(=O)c(C(=O)O)cn5C4CC4)CC3)n2)cc1"
  observed: 0.95
- molecule: "O1[As]2O[As]3O[As]1O[As](O2)O3"
  observed: 0.67
- molecule: "COc1cc(/C=C/C(=O)c2ccc(F)cc2)ccc1OCCCN1CCN(CC(=O)Nc2ccc(Cl)cc2C(=O)c2ccccc2Cl)CC1"
  observed: 1.57
- molecule: "O=[N+]([O-])c1ccc(N2CCC(CCCC3CCN(c4ccc([N+](=O)[O-])cc4[N+](=O)[O-])CC3)CC2)c([N+](=O)[O-])c1"
  observed: 1.75
